# assay notes: Solubility screen of Compound 1 in lipids
# Type: physicochemical
# condition info: oil or lipid; in Tween 20 (Polysorbate 20 NF)
reported property: Solubility

// lookup Solubility for "CC(C)N(C)c1ccc([C@H]2C[C@@]3(C)[C@@H](CC[C@@]3(O)C#CC(C)(C)C)[C@@H]3CCC4=CC(=O)CC[C@@H]4[C@H]32)cc1" < 40 mg/mL

====

# assay notes: Solubility screen of Compound 1 in lipids
# Assay type: physicochemical
# condition info: oil or lipid; in Capmul MCM (Glyceryl monocaprylcaprate, Type I, NF)
reported property: Solubility

// lookup Solubility for CC(C)N(C)c1ccc([C@H]2C[C@@]3(C)[C@@H](CC[C@@]3(O)C#CC(C)(C)C)[C@@H]3CCC4=CC(=O)CC[C@@H]4[C@H]32)cc1 [Compound 1] < 40 mg/mL

====

# assay notes: Solubility screen of Compound 1 in lipids
# Format: physicochemical
# condition info: oil or lipid; in Labrasol ALF (Caprylocaproyl Polyoyl-8 glycerides, NF)
reported property: Solubility (mg/mL)
Record the value in mg/mL, omitting the unit from your answer.

// lookup Solubility for "CC(C)N(C)c1ccc([C@H]2C[C@@]3(C)[C@@H](CC[C@@]3(O)C#CC(C)(C)C)[C@@H]3CCC4=CC(=O)CC[C@@H]4[C@H]32)cc1" 40

====

# assay notes: Solubility screen of Compound 1 in lipids
# Type: physicochemical
# condition info: oil or lipid; in Tween 80 (polysorbate 80 NF)
reported property: Solubility

// lookup Solubility for "CC(C)N(C)c1ccc([C@H]2C[C@@]3(C)[C@@H](CC[C@@]3(O)C#CC(C)(C)C)[C@@H]3CCC4=CC(=O)CC[C@@H]4[C@H]32)cc1" < 40 mg/mL

====

# assay notes: Solubility screen of Compound 1 in lipids
# Type: physicochemical
# condition info: oil or lipid; in Capryol 90 (Propylene glycol monocaprylate, Type II, NF)
reported property: Solubility (mg/mL)
Record the value in mg/mL, omitting the unit from your answer.

// lookup Solubility for "CC(C)N(C)c1ccc([C@H]2C[C@@]3(C)[C@@H](CC[C@@]3(O)C#CC(C)(C)C)[C@@H]3CCC4=CC(=O)CC[C@@H]4[C@H]32)cc1" 40

====

# assay notes: Solubility screen of Compound 1 in lipids
# Type: physicochemical
# condition info: oil or lipid; in Maisine CC (Caprylic/capric triglyceride NF)
reported property: Solubility

// lookup Solubility for CC(C)N(C)c1ccc([C@H]2C[C@@]3(C)[C@@H](CC[C@@]3(O)C#CC(C)(C)C)[C@@H]3CCC4=CC(=O)CC[C@@H]4[C@H]32)cc1 [Compound 1] < 40 mg/mL
